Every entry's value here was drawn from patent US5258492A.

molecular target: membrane receptors of human breast cancer cells (Homo sapiens); construct: endogenous in cells; host or cells: human breast cancer cells (membranes); assay: Binding affinity for membrane receptors of human breast cancer cells using 125I-labeled [D-Trp6]LHRH; settings: Table 1, high affinity binding sites
Sequence (P30968 whole entry): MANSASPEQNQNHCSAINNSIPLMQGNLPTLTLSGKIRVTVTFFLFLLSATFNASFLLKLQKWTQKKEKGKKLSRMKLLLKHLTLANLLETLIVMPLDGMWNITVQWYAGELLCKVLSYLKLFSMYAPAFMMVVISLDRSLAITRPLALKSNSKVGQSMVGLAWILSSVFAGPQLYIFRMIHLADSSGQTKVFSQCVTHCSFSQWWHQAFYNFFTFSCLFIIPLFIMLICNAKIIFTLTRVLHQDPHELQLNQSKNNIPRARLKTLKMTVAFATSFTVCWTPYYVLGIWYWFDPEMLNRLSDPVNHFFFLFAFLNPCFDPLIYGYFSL
Record form. Attribute: Binding affinity, Ka1, for membrane receptors of cancer cells. Fill in for each entry.
Answers are plain numbers, in nM⁻¹.

Example substances with recorded Binding affinity, Ka1, for membrane receptors of cancer cells:
What is its Binding affinity, Ka1, for membrane receptors of cancer cells for membrane receptors of human breast cancer cells (Homo sapiens)? Entry: pGlu-His-Trp-Ser-Tyr-D-Lys[(Cu^++)(CISAL)2 (DL-A2 pr)]-Leu-Arg-Pro-Gly-NH2 [Example IX]
3.995

What do we get for pGlu-His-Trp-Ser-Tyr-D-Lys[(Cu^++)(POLP)2 (DL-A2 bu)]-Leu-Arg-Pro-Gly-NH2 [Example XVI] ?
5.038

What do we get for pGlu-His-Trp-Ser-Tyr-D-Lys[Cu^++)(POL)2 (DL-A2 pr)]-Leu-Arg-Pro-Gly-NH2 [XVIII] ?
3.005

What do we get for pGlu-His-Trp-Ser-Tyr-D-Lys[(Cu^++)(PEN)2 (A2 pr)]-Leu-Arg-Pro-Gly-NH2 [Example XXI] ?
5.096

What do we get for pGlu-His-Trp-Ser-Tyr-D-Lys[Cu^++)(POLP)2 (A2 pr)]-Leu-Arg-Pro-Gly-NH2 [XIX] ?
4.528

Could you tell me Binding affinity, Ka1, for membrane receptors of cancer cells for each of these substances? They are listed below.
1. pGlu-His-Trp-Ser-Tyr-D-Lys[(Cu^++)(SAL)2 (A2 pr)]-Leu-Arg-Pro-Gly-NH2 [Example VII]
2. pGlu-His-Trp-Ser-Tyr-D-Lys[(Ni^++)(CISAL)2 (DL-A2 pr)]-Leu-Arg-Pro-Gly-NH2 [Example X]

1. 3.589
2. 2.236
